Recorded pIC50, one value per entry.
Target: HCN2 (Homo sapiens (Human))
Sequence (Q9UL51 whole entry): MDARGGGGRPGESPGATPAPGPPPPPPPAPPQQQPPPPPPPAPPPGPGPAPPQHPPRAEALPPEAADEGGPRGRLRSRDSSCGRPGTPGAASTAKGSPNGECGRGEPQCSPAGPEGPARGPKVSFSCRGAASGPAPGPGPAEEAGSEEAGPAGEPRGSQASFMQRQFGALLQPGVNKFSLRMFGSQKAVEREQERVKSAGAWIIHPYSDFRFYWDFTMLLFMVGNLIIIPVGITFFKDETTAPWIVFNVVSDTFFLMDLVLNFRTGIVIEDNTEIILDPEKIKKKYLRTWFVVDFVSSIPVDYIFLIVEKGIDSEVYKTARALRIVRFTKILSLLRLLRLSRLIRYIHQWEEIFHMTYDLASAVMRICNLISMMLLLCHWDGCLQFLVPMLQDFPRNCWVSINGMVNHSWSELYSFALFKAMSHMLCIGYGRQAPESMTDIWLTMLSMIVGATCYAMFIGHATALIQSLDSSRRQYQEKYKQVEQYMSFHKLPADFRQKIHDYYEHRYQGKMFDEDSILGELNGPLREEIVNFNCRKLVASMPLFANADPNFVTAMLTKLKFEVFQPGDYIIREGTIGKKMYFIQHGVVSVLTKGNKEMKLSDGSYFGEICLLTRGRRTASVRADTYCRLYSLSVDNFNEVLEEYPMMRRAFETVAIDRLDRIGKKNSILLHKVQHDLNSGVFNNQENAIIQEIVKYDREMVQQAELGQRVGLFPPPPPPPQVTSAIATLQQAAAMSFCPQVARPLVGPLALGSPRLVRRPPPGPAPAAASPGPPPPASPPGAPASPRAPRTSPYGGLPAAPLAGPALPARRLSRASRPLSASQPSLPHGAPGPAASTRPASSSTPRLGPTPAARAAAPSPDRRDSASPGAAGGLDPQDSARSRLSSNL
Assay: HCN2 current assay using the Sophion Qube
Format: cell-based
Settings: Sophion Qube protocol; read-out: SQ HCN2 IC50
Structures can show the parent of a compound that is named as a salt.
pIC50 here is simply -log10 of the concentration when that concentration is written in mol/L.

Cc1ccc(C#N)nc1C[C@H](N)c1ccccc1-c1noc2cc(Br)ccc12 [Example 28] | 6.00
Cc1ccc2c(-c3ccccc3[C@@H](N)Cc3nc(S(C)(=O)=O)ccc3C)noc2c1 [Example 19, hydrochloride] | 5.85
CS(=O)(=O)c1ccc(F)c(C[C@H](N)c2ccccc2-c2noc3c(F)cccc23)n1 [Example 26, hydrochloride] | 5.74

Lab note: measured pIC50 of N#Cc1ccc(F)c(C[C@H](N)c2ccccc2-c2noc3cc(Br)ccc23)n1 [Example 27] was 5.85
